Values were extracted from ChEMBL document CHEMBL1148381.

# Assay system: Human immunodeficiency virus type 1 integrase (Human immunodeficiency virus 1)
# Measurement notes: Inhibitory activity against 3' processing by HIV integrase
Exercise: state measured log10 IC50 for each of the molecules provided.
// do not treat as linear: log10 of IC50, unit µM

O=S(=O)(Nc1nnc2n1-c1ccccc1CC2)c1ccc(Cl)cc1S	1.34
CCCCn1cnnc1NS(=O)(=O)c1cc(C(=O)Nc2ccc(Cl)cc2)c(Cl)cc1S	1.56
O=S(=O)(Nc1nccs1)c1ccc(/N=N/c2cnc(O)c(O)c2)cc1	1.36
CCCCn1cnnc1NS(=O)(=O)c1cc(C(=O)NCc2ccccc2)c(Cl)cc1S	1.95
COC(=O)CSc1cc(Cl)c(C)cc1S(=O)(=O)Nc1nnc(N)[nH]1	2.30

Please go through the list and note log10 IC50 for each molecule.
1. Cc1ccc(NC(=O)c2cc(S(=O)(=O)Nc3nncn3Cc3ccccc3)c(S)cc2Cl)cc1
2. Cc1cc(S(=O)(=O)Nc2nc3ccccc3nc2-c2cccc([N+](=O)[O-])c2)c(S)cc1Cl
3. Cc1cc(S(=O)(=O)Nc2nnc3c(C(F)(F)F)cc(Cl)cn23)c(S)cc1Cl

Reply text:
0.95
1.18
1.03

// for each molecule below, give its log10 IC50
1. Cc1cc(S(=O)(=O)Nc2nnc3c(Cl)cc(C(F)(F)F)cn23)c(S)cc1Cl
2. O=C(Nc1ccccc1)c1cc(S(=O)(=O)Nc2nncn2-c2ccc(Cl)cc2)c(S)cc1Cl

Reply text:
1. 1.25
2. 0.78

----------
# Assay system: Human immunodeficiency virus type 1 integrase (Human immunodeficiency virus 1)
# Measurement notes: Inhibitory activity against 3' processing by HIV integrase
pIC50: −log10 of the molar value.
Entries are sorted into classes by pIC50 as follows: lower bin = under 4, middle bin = from 4 up to 5, upper bin = 5 and over

Cc1cc2nc3nc(N)nc(NS(=O)(=O)c4cc(C)c(Cl)cc4S)n3c2cc1C	upper bin

# evaluate next
Inquiry: Class? Entry: Cc1cc(S(=O)(=O)Nc2nc(Nc3ccc(Cl)cc3)nn2C)c(S)cc1Cl
Reply text: middle bin

----------
Field: pIC50. Provide a value for each of the compounds that follow.
# Assay system: Human immunodeficiency virus type 1 integrase (Human immunodeficiency virus 1, UniProt Q7ZJM1)
# Sequence (Q7ZJM1 whole entry): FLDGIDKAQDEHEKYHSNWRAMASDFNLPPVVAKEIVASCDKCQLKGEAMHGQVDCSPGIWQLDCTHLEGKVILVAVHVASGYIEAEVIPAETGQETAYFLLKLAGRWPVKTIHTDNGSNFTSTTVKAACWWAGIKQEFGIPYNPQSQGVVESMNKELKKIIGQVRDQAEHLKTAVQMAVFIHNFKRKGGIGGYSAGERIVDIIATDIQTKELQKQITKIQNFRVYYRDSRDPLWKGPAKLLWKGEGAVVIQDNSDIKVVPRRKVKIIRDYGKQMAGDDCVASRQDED
# Measurement notes: Inhibitory activity against DNA strand transfer by HIV integrase
Numbers only, as −log10 of the molar value.

Consider the following illustrative entries.
Cc1ccc(-n2cnnc2NS(=O)(=O)c2cc(C(=O)Nc3ccccc3)c(Cl)cc2S)cc1	5.00
CCCCn1cnnc1NS(=O)(=O)c1cc(C(N)=O)c(Cl)cc1SCC(=O)O	3.38
Cc1cc(S(=O)(=O)Nc2nnc3cc(C(F)(F)F)cc(C)n23)c(S)cc1Cl	4.96
Cc1cc(S(=O)(=O)Nc2nc(N)n(-c3ccccn3)n2)c(S)cc1Cl	4.64

Value of pIC50 reported for the compound O=S(=O)(Nc1nnc2c3ccccc3ccn12)c1ccc(F)cc1S is 4.32

----------
# Assay system: Human immunodeficiency virus type 1 integrase (Human immunodeficiency virus 1, UniProt Q7ZJM1)
# Measurement notes: Inhibitory activity against DNA strand transfer by HIV integrase
Please note: IC50 exactly at 100 µM is F. Only values below 100 µM get T.

Cc1cnc(NS(=O)(=O)c2ccc(/N=N/c3cc4ccccc4cc3O)cc2)s1	T

Inquiry: # check: IC50 < 100 µM for Cc1cc2c(cc1Cl)SC(C(C#N)C#N)NS2(=O)=O (centres undefined)
Reply text: F

Inquiry: Threshold test, IC50 < 100 µM: CC1N=NC(c2ccc(S(=O)(=O)NC3SC(=S)NC3=O)cc2)S1 (centres undefined)
Reply text: T

Inquiry: Is 100 µM strictly greater than the compound's reported IC50? compound: CCCn1cnnc1NS(=O)(=O)c1cc(C(=O)Nc2ccc(C)cc2)c(Cl)cc1S
Reply text: T

Inquiry: Is 100 µM strictly greater than the compound's reported IC50? compound: Cc1cc(S(=O)(=O)Nc2nnc3c(C(F)(F)F)cc(Cl)cn23)c(S)cc1Cl
Reply text: T

Inquiry: Is the reported IC50 for O=C(CC(Sc1[nH]cnc2ncnc1-2)Sc1[nH]cnc2ncnc1-2)Nc1ccc(S(=O)(=O)Nc2ccc(/N=N/c3ccccc3)cc2)cc1 strictly below 100 µM?
Reply text: F

Inquiry: Does the reported IC50 of the following compound sit strictly below 100 µM? CCCCn1cnnc1NS(=O)(=O)c1cc(C(=O)Nc2ccc(C)cc2)c(Cl)cc1S
Reply text: T
